Source of measurements: the RNAGym collection of RNA variant scans (doi:10.1038/s41586-018-0170-7)

B1: tRNA (parent)
chain: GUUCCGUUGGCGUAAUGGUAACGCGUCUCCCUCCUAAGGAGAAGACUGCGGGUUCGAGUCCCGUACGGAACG

variants of: B1; assay: yeast fitness, log relative to wild type (ln ratio); higher = fitter; tRNA-Arg(CCU), competitive growth, 37 C, 1 M NaCl
readout-name: yeast fitness (ln)
Hey, just send me the number, nothing else.

[
  {
    "variant-description": "U2G C27U C46U C66U A69G",
    "observed-result": -0.211
  },
  {
    "variant-description": "G1A U2G C27U A43C C46U C66A A69G C71U",
    "observed-result": -0.315
  },
  {
    "variant-description": "G1A C66U C71U",
    "observed-result": -0.105
  }
]

// yeast fitness (ln) lookup, variant = U2C G6A A70U , result: -0.0455

The variant identified as G1A G6A C27U C46U C66U A69G A70G C71U registered its yeast fitness (ln) at -0.698

In plain terms, U2G A43C C46U A69G C71U has a documented yeast fitness (ln) of -0.107

yeast fitness (ln) reading for U2G G6A C27U A43C A69G A70U C71U : -0.502

# variant G6U C66U A69G C71U ; its yeast fitness (ln) = -0.374

# variant G1A U2G G6U C27U C66U C71U ; its yeast fitness (ln) = -0.522

Sure, the documented yeast fitness (ln) for G1A G6A A43C C46U C66U A70U is -0.24

Form field yeast fitness (ln), entry G1A U2G G6U C46U A70U : -0.246
